Origin of measurements: patent US20030134292A1

Molecular target: Tth Δ273 F668Y (polymerase C) (Thermus thermophilus, UniProt P52028, F274M/F669Y)
Construct: made in house; host or cells: E. coli
Sequence (P52028 274-834 F274M/F669Y): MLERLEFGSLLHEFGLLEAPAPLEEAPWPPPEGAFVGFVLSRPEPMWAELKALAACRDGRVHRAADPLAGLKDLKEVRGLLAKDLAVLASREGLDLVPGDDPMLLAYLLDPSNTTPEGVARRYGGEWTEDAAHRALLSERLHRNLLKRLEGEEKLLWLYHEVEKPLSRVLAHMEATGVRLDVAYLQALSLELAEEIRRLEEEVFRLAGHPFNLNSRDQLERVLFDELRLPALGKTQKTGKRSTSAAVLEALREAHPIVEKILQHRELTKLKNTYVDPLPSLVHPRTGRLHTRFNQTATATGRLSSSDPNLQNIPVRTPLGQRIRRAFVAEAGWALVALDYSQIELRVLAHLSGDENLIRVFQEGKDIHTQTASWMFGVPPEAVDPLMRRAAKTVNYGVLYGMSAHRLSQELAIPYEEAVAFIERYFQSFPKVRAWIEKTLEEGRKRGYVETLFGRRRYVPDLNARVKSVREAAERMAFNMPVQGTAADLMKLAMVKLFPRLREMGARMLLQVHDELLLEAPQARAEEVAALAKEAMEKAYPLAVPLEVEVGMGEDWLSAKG
Test: DNA polymerase activity assay with detergent or additive, Tth Δ273 F668Y purified without detergent
Assay type: biochemical
Conditions: additive final concentration 0.1% (w/v)
Description: DNA polymerase activity was measured by running reactions of 50 μL containing 25 mM TAPS (tris-hydroxymethyl-methylaminopropane sulfonic acid) buffer, pH 9.3 (measured at 25° C.), 50 mM KCl, 2 mM MgCl2, 1 mM 2-mercaptoethanol, 0.2 mM each of dGTP, dCTP, dTTP, 0.2 mM [α-^33P]-dATP (0.05-0.1 Ci/mmol) and 0.4 mg/mL activated salmon sperm DNA. […] The filter was placed in 3 ml of aqueous scintillation counting fluid and ^33P-specific radioactivity determined by scintillation counting. […]
measured_metric: Tth Δ273 F668Y activity relative to 0.5% each NP-40 and Tween 20

{"molecule": "CC1=NCC[C@@H](C(=O)O)N1 [Ectoin]", "test_value": "− − − (Activity < 20%)"}
{"molecule": "C[C@H](CCC(=O)NCCC[N+](C)(C)CC(O)CS(=O)(=O)[O-])[C@H]1CC[C@H]2[C@@H]3[C@H](O)C[C@@H]4C[C@H](O)CC[C@]4(C)[C@H]3C[C@H](O)[C@]12C (some centres unmarked) [CHAPSO]", "test_value": "− − (Activity 20-50%)"}
{"molecule": "C[C@H](CCC(=O)NCCC[N+](C)(C)CCCS(=O)(=O)[O-])[C@H]1CC[C@H]2[C@@H]3[C@H](O)C[C@@H]4C[C@H](O)CC[C@]4(C)[C@H]3C[C@H](O)[C@]12C [CHAPS]", "test_value": "− − (Activity 20-50%)"}
{"molecule": "C[C@H](CCC(=O)[O-])[C@H]1CC[C@H]2[C@@H]3[C@H](O)C[C@@H]4C[C@H](O)CC[C@]4(C)[C@H]3C[C@H](O)[C@]12C.[Na+] [Sodium Cholate]", "test_value": "− − − (Activity < 20%)"}

====

molecular target: Taq Δ271 F667Y E681W (polymerase B) (Thermus aquaticus, UniProt P19821, E681W/F272M/F667Y); construct: made in house; host or cells: E. coli; test: DNA polymerase activity assay with detergent or additive, Taq Δ271 F667Y E681W purified without detergent; assay type: biochemical; settings: additive final concentration 0.1% (w/v)
Sequence (P19821 272-832 F272M/F667Y/E681W): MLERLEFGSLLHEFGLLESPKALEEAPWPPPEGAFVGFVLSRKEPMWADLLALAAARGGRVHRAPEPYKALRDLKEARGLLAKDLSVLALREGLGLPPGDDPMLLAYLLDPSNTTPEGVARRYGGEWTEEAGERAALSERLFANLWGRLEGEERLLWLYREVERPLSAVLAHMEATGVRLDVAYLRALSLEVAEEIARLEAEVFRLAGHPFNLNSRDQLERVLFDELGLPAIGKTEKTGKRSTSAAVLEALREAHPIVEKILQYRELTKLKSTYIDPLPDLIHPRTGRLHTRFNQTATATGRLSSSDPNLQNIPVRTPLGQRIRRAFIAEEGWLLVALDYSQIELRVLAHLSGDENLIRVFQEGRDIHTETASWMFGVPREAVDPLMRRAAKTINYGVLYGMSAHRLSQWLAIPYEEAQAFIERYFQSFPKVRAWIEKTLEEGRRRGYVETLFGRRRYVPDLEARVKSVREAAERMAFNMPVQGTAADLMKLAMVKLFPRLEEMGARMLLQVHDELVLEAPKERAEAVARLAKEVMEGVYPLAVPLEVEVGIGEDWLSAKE
measured_metric: Taq Δ271 F667Y E681W activity relative to 0.5% each NP-40 and Tween 20

{"compound": "CC1=NCC[C@@H](C(=O)O)N1", "test_value": "− − − (Activity < 20%)"}
{"compound": "C[C@H](CCC(=O)[O-])[C@H]1CC[C@H]2[C@@H]3[C@H](O)C[C@@H]4C[C@H](O)CC[C@]4(C)[C@H]3C[C@H](O)[C@]12C.[Na+] [Sodium Cholate]", "test_value": "− − − (Activity < 20%)"}

====

biological target: Tth Δ273 F668Y (polymerase C) (Thermus thermophilus, UniProt P52028, F274M/F669Y); construct: made in house; host or cells: E. coli; assay: DNA polymerase activity assay with detergent or additive, Tth Δ273 F668Y purified without detergent; type: biochemical; conditions: additive final concentration 0.01% (w/v)
measured_metric: Tth Δ273 F668Y activity relative to 0.5% each NP-40 and Tween 20

{"compound": "C[C@H](CCC(=O)NCCC[N+](C)(C)CC(O)CS(=O)(=O)[O-])[C@H]1CC[C@H]2[C@@H]3[C@H](O)C[C@@H]4C[C@H](O)CC[C@]4(C)[C@H]3C[C@H](O)[C@]12C (stereo partly shown)", "test_value": "− (Activity 50-60%)"}
{"compound": "C[C@H](CCC(=O)NCCC[N+](C)(C)CCCS(=O)(=O)[O-])[C@H]1CC[C@H]2[C@@H]3[C@H](O)C[C@@H]4C[C@H](O)CC[C@]4(C)[C@H]3C[C@H](O)[C@]12C", "test_value": "− (Activity 50-60%)"}
{"compound": "CC1=NC[C@H](O)[C@@H](C(=O)O)N1 [Hydroxyectoin]", "test_value": "− − − (Activity < 20%)"}
{"compound": "CCCCCCCCC(=O)N(C)C[C@H](O)[C@@H](O)[C@H](O)[C@H](O)CO [Mega-9, Nonyl-N-methylglucamide]", "test_value": "− − (Activity 20-50%)"}
{"compound": "C[C@H](CCC(=O)[O-])[C@H]1CC[C@H]2[C@@H]3[C@H](O)C[C@@H]4C[C@H](O)CC[C@]4(C)[C@H]3C[C@H](O)[C@]12C.[Na+] [Sodium Cholate]", "test_value": "− − − (Activity < 20%)"}
{"compound": "CCCCCCCCO[C@@H]1O[C@H](CO)[C@H](O)[C@H](O)[C@H]1O [N-octyl β-D-galactopyranoside]", "test_value": "− − (Activity 20-50%)"}
{"compound": "CCCCCCCCO[C@@H]1O[C@H](CO)[C@@H](O)[C@H](O)[C@H]1O [Octyl Glucopyranoside, n-octyl-β-D-glucopyranoside]", "test_value": "− − − (Activity < 20%)"}
{"compound": "CC1=NCC[C@@H](C(=O)O)N1", "test_value": "− − − (Activity < 20%)"}
